assayed_target: VHL (Homo sapiens, UniProt P40337)
Construct: expressed in transfected cells
Sequence (P40337 whole entry): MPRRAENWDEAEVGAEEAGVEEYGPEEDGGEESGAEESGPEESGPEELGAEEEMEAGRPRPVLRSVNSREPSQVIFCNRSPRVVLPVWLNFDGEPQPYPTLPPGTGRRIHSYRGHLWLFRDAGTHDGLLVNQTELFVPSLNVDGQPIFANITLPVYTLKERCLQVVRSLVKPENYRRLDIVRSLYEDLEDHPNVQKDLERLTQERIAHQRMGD
assay_remarks: VHL HEK-293 BRET Assay (VHL NanoBRET Target Engagement Assay)
Type: cell-based
condition_context: ratio not defined
Exercise: state measured Ratio cell permeability shift for each of the compounds provided.
Keep the answer to the number alone.

## Task Fill in the recorded Ratio cell permeability shift for this compound, with VHL (Homo sapiens, UniProt P40337) as test system: CC(C)[C@@H](C(=O)N1C[C@H](O)C[C@H]1C(=O)N[C@H](Cc1ccc(-c2ccccc2)cc1)C(N)=O)n1cc(-c2ccco2)nn1
## Result 0.93

## Task And then Cc1ncsc1-c1ccc(CNC(=O)[C@@H]2C[C@@H](O)CN2C(=O)[C@@H](n2cc(C3CC3)nn2)C(C)(C)c2ccccc2)cc1 , what is it?
## Result 1.02

## Task Same again, this time with Cc1ncsc1-c1ccc(CNC(=O)[C@@H]2C[C@@H](O)CN2C(=O)[C@H](C2CCCCC2)n2cc(C3CC3)nn2)cc1
## Result 0.67

## Task Continue with C[C@@H](NC(=O)[C@@H]1C[C@@H](O)CN1C(=O)[C@@H](n1cc(C2CC2)nn1)C(C)(C)C)c1ccc(-c2ccccc2F)cc1
## Result 0.71

## Task And then CC(C)(C)[C@@H](C(=O)N1C[C@H](O)C[C@H]1C(=O)N[C@H](Cc1ccc(-c2ccccc2)cc1)C(N)=O)n1cc(C2CC2)nn1 , what is it?
## Result 0.97

## Task Can you check CCC(C)(C)[C@@H](C(=O)N1C[C@H](O)C[C@H]1C(=O)N[C@@H](C)c1ccc(-c2scnc2C)cc1)n1cc(C2CC2)nn1 next?
## Result 0.67

---

assayed_target: VHL Elongin B/C complex (Homo sapiens)
Construct: amino acids E55-D213 of human VHL with N-terminal His6 tag; His6 (N); TEV-protease cleavage site (N)
Sequence (P40337 55-213): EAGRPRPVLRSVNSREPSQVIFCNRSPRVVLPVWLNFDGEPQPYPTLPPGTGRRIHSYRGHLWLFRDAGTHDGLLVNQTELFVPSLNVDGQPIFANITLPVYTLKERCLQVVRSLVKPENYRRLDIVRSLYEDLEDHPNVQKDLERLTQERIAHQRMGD
Sequence (Q15370 whole entry partner, the tested form may be a part): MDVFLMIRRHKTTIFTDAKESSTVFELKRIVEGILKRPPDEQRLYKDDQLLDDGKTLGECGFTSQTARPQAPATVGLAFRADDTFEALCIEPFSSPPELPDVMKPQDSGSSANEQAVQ
Sequence (Q15369 17-112 partner limits assumed): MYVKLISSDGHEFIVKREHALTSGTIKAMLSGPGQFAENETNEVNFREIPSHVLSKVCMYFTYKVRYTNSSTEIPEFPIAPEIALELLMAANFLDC
assay_remarks: Fluorescence Polarization (FP) VHL Binding Assay
condition_context: fluorescence polarization tracer competition; geometric mean where more than one measurement
Task for the reader: assign each of the following molecules its reported pIC50.
// scale note: pIC50 = -log10(conc_M); give the bare number

## Task API: value(readout=pIC50, system=VHL Elongin B/C complex (Homo sapiens)) for record CC(=O)NCCOCc1cn([C@H](C(=O)N2C[C@H](O)C[C@H]2C(=O)N[C@H](Cc2ccc(-c3ccccc3)cc2)C(N)=O)C(C)(C)C)nn1
## Result 7.10

## Task Consider next the molecule Cc1ncsc1-c1ccc(CNC(=O)[C@@H]2C[C@@H](O)CN2C(=O)[C@@H](n2cc(C3CC3)nn2)C(C)(C)C)cc1 in the same way.
## Result 8.00

## Task Now consider CC(C)(C)[C@@H](C(=O)N1C[C@H](O)C[C@H]1C(=O)N[C@H](Cc1ccc(-c2ccccc2)cc1)C(N)=O)n1cc(C2CC2)nn1 .
## Result 6.82

## Task Also need Cc1ncsc1-c1ccc(CNC(=O)[C@@H]2C[C@@H](O)CN2C(=O)[C@@H](n2cc(Cc3ccccc3)nn2)C(C)(C)C)cc1 , thanks.
## Result 7.70

---

Task for the reader: assign each of the following compounds its reported EC50.
assayed_target: VHL (Homo sapiens, UniProt P40337)
assay_remarks: VHL nanoBRET (+ Digitonin)
Your answer should be a number followed by the unit of measure.

## Task Please state recorded EC50 (tested on VHL (Homo sapiens, UniProt P40337)) of Cc1cnnn1[C@H](C(=O)N1C[C@H](O)C[C@H]1C(=O)N[C@H](Cc1ccc(-c2ccccc2)cc1)C(N)=O)C(C)C
## Result 3640 nM

## Task Could you do the same for CCC(C)(C)[C@@H](C(=O)N1C[C@H](O)C[C@H]1C(=O)N[C@H](Cc1ccc(-c2ccccc2)cc1)C(N)=O)n1cc(C2CC2)nn1 , please?
## Result 140 nM

## Task One more compound: Cc1ncsc1-c1ccc(CNC(=O)[C@@H]2C[C@@H](O)CN2C(=O)[C@@H](n2cc(C3(C)CC3)nn2)C(C)(C)C)cc1
## Result 10 nM

## Task Same for Cc1ncsc1-c1ccc([C@@H](NC(=O)[C@@H]2C[C@@H](O)CN2C(=O)[C@@H](n2cc(C3CC3)nn2)C(C)(C)C)C(F)(F)F)cc1
## Result 110 nM

## Task Record: CC(=O)NCC1(c2cn([C@H](C(=O)N3C[C@H](O)C[C@H]3C(=O)N[C@H](Cc3ccc(-c4ccccc4)cc3)C(N)=O)C(C)(C)C)nn2)CC1
## Result 220 nM

## Task And what about the compound Cc1ncsc1-c1ccc(CNC(=O)[C@@H]2C[C@@H](O)CN2C(=O)[C@@H](n2cc(C3CC3)nn2)C(C)(C)C)cc1 ?
## Result 10 nM

---

assayed_target: VHL (Homo sapiens)
Construct: expressed in transfected cells
assay_remarks: VHL nanoBRET (+ Digitonin)
Type: cell-based
Just a reminder that ties go to label 0: only EC50 strictly below 200 nM counts as label 1.

## Task Decide: EC50 of Cc1ncsc1-c1ccc([C@H](C)NC(=O)[C@@H]2C[C@@H](O)CN2C(=O)[C@H](C2CCCCC2)n2cc(C3CC3)nn2)cc1 [Example S19] strictly below 200 nM?
## Result label 1

## Task Now consider Cc1ncsc1-c1ccc(CNC(=O)[C@@H]2C[C@@H](O)CN2C(=O)[C@@H](n2cc(C3CC3)nn2)C(C)(C)c2ccccc2)cc1 [Example S26] and answer again.
## Result label 1

## Task // query: COC(=O)c1nnn([C@@H](C(=O)N2C[C@H](O)C[C@H]2C(=O)N[C@H](Cc2ccc(-c3ccccc3)cc2)C(N)=O)C(C)C)c1C (single isomer, unassigned) [Isomer A from Example S33]
## Result label 0

## Task Would you kindly repeat that for CC(C)[C@@H](C(=O)N1C[C@H](O)C[C@H]1C(=O)N[C@H](Cc1ccc(-c2ccccc2)cc1)C(N)=O)n1cc(-c2cccs2)nn1 [Example S38] ?
## Result label 1

## Task C=CC(C)(C)[C@@H](C(=O)N1C[C@H](O)C[C@H]1C(=O)N[C@H](Cc1ccc(-c2ccccc2)cc1)C(N)=O)n1cc(C2CC2)nn1 [Example S7] , same question.
## Result label 1

## Task Then this molecule: CCC(C)(C)[C@@H](C(=O)N1C[C@H](O)C[C@H]1C(=O)N[C@@H](C)c1ccc(-c2scnc2C)cc1)n1cc(C2CC2)nn1 [Example S21]
## Result label 1

---

assayed_target: VHL (Homo sapiens, UniProt P40337)
Construct: expressed in transfected cells
assay_remarks: VHL HEK-293 BRET Assay (VHL NanoBRET Target Engagement Assay)
Type: cell-based
condition_context: ratio not defined
observed_property: Ratio cell permeability shift
The answer should be a number; do not append a unit.

## Task What value of measured Ratio cell permeability shift is listed for C=CC(C)(C)[C@@H](C(=O)N1C[C@H](O)C[C@H]1C(=O)N[C@H](Cc1ccc(-c2ccccc2)cc1)C(N)=O)n1cc(C2CC2)nn1 ?
## Result 0.68

## Task Same question, CC(C)(C)[C@@H](C(=O)N1C[C@H](O)C[C@H]1C(=O)N[C@H](Cc1ccc(-c2ccccc2)cc1)C(N)=O)n1cc(C(N)=O)nn1 this time
## Result 8.30

## Task Another: NC(=O)[C@@H](Cc1ccc(-c2ccccc2)cc1)NC(=O)[C@@H]1C[C@@H](O)CN1C(=O)[C@H](C1CCC1)n1cc(C2CC2)nn1
## Result 0.96

## Task Another compound to check: Cc1ncsc1-c1ccc(C(C)NC(=O)[C@@H]2C[C@@H](O)CN2C(=O)[C@@H](n2cc(C3CC3)nn2)C23CC4CC(CC(C4)C2)C3)c(Cl)c1 (stereo partly drawn)
## Result 0.42

## Task Again, but for Cc1ncsc1-c1ccc([C@H](C)NC(=O)[C@@H]2C[C@@H](O)CN2C(=O)[C@@H](n2cc(C3CC3)nn2)C23CC4CC(CC(C4)C2)C3)cc1
## Result 0.54

---

assayed_target: VHL (Homo sapiens)
assay_remarks: VHL nanoBRET (+ Digitonin)
observed_property: EC50 (nM)
Entry rule: numbers only, all in nM.

## Task For the molecule shown here, Cc1ncsc1-c1ccc(CNC(=O)[C@@H]2C[C@@H](O)CN2C(=O)[C@@H](n2cc(C3(C(F)(F)F)CC3)nn2)C(C)(C)C)cc1 , give the reported EC50.
## Result 40

## Task Next molecule up: Cc1ncsc1-c1ccc(C(C)NC(=O)[C@@H]2C[C@@H](O)CN2C(=O)[C@@H](n2cc(C3CC3)nn2)C23CC4CC(CC(C4)C2)C3)c(Cl)c1 (some centres unmarked)
## Result 40

## Task # repeat for CC(C)(C)[C@@H](C(=O)N1C[C@H](O)C[C@H]1C(=O)NCc1ccc(-c2ccccc2F)cc1)n1cc(C2CC2)nn1
## Result 30

## Task Follow-up entry: Cc1ncsc1-c1ccc2c(c1)CCCC[C@@H]2NC(=O)[C@@H]1C[C@@H](O)CN1C(=O)[C@@H](n1cc(C2CC2)nn1)C(C)(C)C
## Result 230

## Task What do we get for COC(=O)c1nnn([C@H](C(=O)N2C[C@H](O)C[C@H]2C(=O)N[C@H](Cc2ccc(-c3ccccc3)cc2)C(N)=O)C(C)C)c1C (single isomer, unassigned) [Isomer B from Example S33] ?
## Result 990

Data provenance is patent US20230391766A1.
